Reported SPOT peptide array binding signal intensity values are given for each entry in this list.
biological target: SpHse1; experiment: SPOT peptide array binding signal intensity (averaged, normalized) (arbitrary units (background-subtracted, floor 0; scale differs between SH3 domains)); higher = stronger binding of the SH3 domain to the peptide
quantity: SPOT peptide array binding signal intensity

- binder: "HGKRRAPLLLAKLDV"
  relation: "="
  observed_measurement: 235
- binder: "KTITLEVESSDTIDN"
  relation: "≤"
  observed_measurement: 0
- binder: "PLQSKIPMLPSRRTM"
  relation: "="
  observed_measurement: 272
- binder: "MKRSRPSRSIPYTTP"
  relation: "="
  observed_measurement: 177
- binder: "WRPRIVPILPYITRL"
  relation: "="
  observed_measurement: 315
- binder: "QPWTDQFEKLEKEVS"
  relation: "="
  observed_measurement: 15.5
- binder: "PALPSLPPPPLLNVD"
  relation: "≤"
  observed_measurement: 0
- binder: "SPLGAPPPPPHKDHL"
  relation: "≤"
  observed_measurement: 0
- binder: "PIVPSSPAPPLPLSG"
  relation: "="
  observed_measurement: 7
- binder: "LLIRWLILMPLVGSR"
  relation: "="
  observed_measurement: 2700
- binder: "VPVAPPPPPASLGQS"
  relation: "="
  observed_measurement: 1
- binder: "AHFQPQRTAPKPPIS"
  relation: "="
  observed_measurement: 70.1
- binder: "VRTRRRPPPPPIPST"
  relation: "="
  observed_measurement: 42.8
- binder: "SNRRPVPRRPSQPLN"
  relation: "="
  observed_measurement: 91.5
- binder: "HVRRSILALPLGVLL"
  relation: "="
  observed_measurement: 508
- binder: "AAHKTKPSIPPKKVE"
  relation: "="
  observed_measurement: 32.8
- binder: "MSPLGAPPPPPHKDH"
  relation: "≤"
  observed_measurement: 0
- binder: "RRRIAYPFYPFKKLG"
  relation: "="
  observed_measurement: 745
- binder: "FFRRSELYLPNSSKA"
  relation: "="
  observed_measurement: 552
- binder: "TIRRRAPLSLLESHT"
  relation: "="
  observed_measurement: 598
- binder: "NTMKKRPAPPSLPSL"
  relation: "="
  observed_measurement: 602
- binder: "GRLRPKRIAPWHLIQ"
  relation: "="
  observed_measurement: 309
- binder: "KRRAPPPVPKKPSSR"
  relation: "="
  observed_measurement: 179
- binder: "RTRRRPPPPPIPSTQ"
  relation: "="
  observed_measurement: 72.2

Source: the supplement of paper PMC4466140
